Experimental Target: T1, Human membrane IL-6R on cells (human, UniProt P08887 20-468)
T1 sequence (looked up): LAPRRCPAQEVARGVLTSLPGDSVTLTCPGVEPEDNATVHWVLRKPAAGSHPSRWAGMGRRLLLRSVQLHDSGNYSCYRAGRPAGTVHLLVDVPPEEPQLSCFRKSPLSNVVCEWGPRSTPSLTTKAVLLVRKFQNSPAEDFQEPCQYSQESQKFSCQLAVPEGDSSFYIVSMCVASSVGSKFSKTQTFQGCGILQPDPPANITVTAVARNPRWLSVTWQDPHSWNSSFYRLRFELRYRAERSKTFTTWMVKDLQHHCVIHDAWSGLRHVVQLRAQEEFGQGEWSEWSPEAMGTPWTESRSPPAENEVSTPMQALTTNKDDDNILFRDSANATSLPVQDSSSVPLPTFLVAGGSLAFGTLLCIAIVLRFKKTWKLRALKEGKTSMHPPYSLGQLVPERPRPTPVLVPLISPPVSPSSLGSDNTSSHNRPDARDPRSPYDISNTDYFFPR
Assay Comment: cell-based or functional assay
IC50 (nM), XG-1 cell proliferation overview
# output: bare number, implied unit nM

- IL6R10 (VHH, also called PMP35C10; not shown: C-terminal c-myc and (His)6 tags) VHH: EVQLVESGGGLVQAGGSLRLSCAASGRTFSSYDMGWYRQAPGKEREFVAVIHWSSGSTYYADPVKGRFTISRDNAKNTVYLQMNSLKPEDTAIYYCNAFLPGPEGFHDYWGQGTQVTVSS: 2.5

IN: Recorded IC50 (nM), XG-1 cell proliferation for IL6R12 (VHH, also called PMP35F4; not shown: C-terminal c-myc and (His)6 tags) VHH: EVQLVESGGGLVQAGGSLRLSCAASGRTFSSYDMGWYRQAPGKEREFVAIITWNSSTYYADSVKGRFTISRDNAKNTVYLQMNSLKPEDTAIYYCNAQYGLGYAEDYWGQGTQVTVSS , please?
OUT: 2.8

IN: Same question, IL6R08 (VHH, also called PMP34A12; not shown: C-terminal c-myc and (His)6 tags) VHH: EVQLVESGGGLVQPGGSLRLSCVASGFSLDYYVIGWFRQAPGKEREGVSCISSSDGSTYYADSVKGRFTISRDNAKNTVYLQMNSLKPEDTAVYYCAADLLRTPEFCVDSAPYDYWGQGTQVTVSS this time
OUT: 36.6

IN: Same question, IL6R09 (VHH, also called PMP34G9; not shown: C-terminal c-myc and (His)6 tags) VHH: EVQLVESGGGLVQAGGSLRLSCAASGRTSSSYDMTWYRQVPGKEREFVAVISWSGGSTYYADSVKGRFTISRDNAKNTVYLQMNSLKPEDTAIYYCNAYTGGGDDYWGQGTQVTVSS this time
OUT: 2.7

IN: Same question, IL6R02 (VHH, also called PMP30C11; not shown: C-terminal c-myc and (His)6 tags) VHH: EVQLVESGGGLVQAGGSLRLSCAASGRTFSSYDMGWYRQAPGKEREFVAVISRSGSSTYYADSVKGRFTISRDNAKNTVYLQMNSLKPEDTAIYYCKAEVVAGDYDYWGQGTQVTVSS this time
OUT: 31

IN: Same question, IL6R03 (VHH, also called PMP31A4; not shown: C-terminal c-myc and (His)6 tags) VHH: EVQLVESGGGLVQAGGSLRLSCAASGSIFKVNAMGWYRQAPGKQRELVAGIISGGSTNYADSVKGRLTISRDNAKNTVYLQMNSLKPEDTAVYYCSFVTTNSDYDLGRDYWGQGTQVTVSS this time
OUT: 16.2

IN: Same question, IL6R11 (VHH, also called PMP35E11; not shown: C-terminal c-myc and (His)6 tags) VHH: EVQLVESGGGLVQAGGSLRLSCAASGFTFDDYAIGWFRQAPGKEHEGVSCISSSDGSTYYADSVKGRFTISSDNAKNTVYLQMNSLKPEDTAVYYCAAERDVPARSLCGSYYWYDYRGQGTQVTVSS this time
OUT: 5.4

Every entry's value here was drawn from patent US20120077731A1.
